# testDetails: Cytotoxicity against African green monkey Vero cells by MTT assay
# Type: cell-based
# condition: chlorocebus sabaeus
assayEndpoint: CC50 (µM)
One number for each entry, in µM.

Dear colleague, could you send me CC50 for each of the items below? Thanks.
1. CC(C)CCn1c(CN2C(=O)C3(CC3)c3cc(Cl)ccc32)nc2cc(CN)ccc21
2. CC(C)CCn1c(CN2C(=O)C3(CC3)Cc3ccccc32)nc2cc(CN)ccc21
3. CC(C)CCn1c(CN2C(=O)C3(CCCC3)Cc3ccccc32)nc2cc(CN)ccc21

### Response
1: 0.71; 2: 33.4; 3: 11.5

----------
# testDetails: Intrinsic clearance in Sprague-Dawley rat liver microsomes preincubated followed by NADPH addition and measured up to 45 mins by LC-MS/MS analysis
# Type: ADME, Microsome
Outcome: TRUE for Microsomal intrinsic clearance of at least 9 µL/min; FALSE for anything lower.

Completed entries (count: 2):
{"compound": "NCc1ccc2c(c1)nc(CN1C(=O)C3(CC3)c3ccc(F)cc31)n2C1CCC(O)CC1 (centres undefined)", "labelClass": "TRUE"}
{"compound": "NCc1ccc2c(c1)nc(CN1C(=O)C3(CC3)c3ccc(F)cc31)n2C1CCOCC1", "labelClass": "FALSE"}

### Prompt Could you verify whether the entry `CC(C)CCn1c(CN2C(=O)C3(CC3)c3cccnc32)nc2cc(CN)ccc21` shows Microsomal intrinsic clearance of no less than 9 µL/min?
### Response TRUE

### Prompt Could you verify whether the entry `O=C1N(Cc2nc3cc(Cl)ccc3n2CCCC(F)(F)F)c2cc(F)ccc2C12CC2` shows Microsomal intrinsic clearance of no less than 9 µL/min?
### Response TRUE

### Prompt Could you verify whether the entry NCc1ccc2c(c1)nc(CN1C(=O)C3(CC3)c3ccc(F)cc31)n2CCCC(F)(F)F [SISUNATOVIR] shows Microsomal intrinsic clearance of no less than 9 µL/min?
### Response TRUE

### Prompt Could you verify whether the entry `CC(C)CCn1c(CN2C(=O)C3(CC3)c3cccc(F)c32)nc2cc(CN)ccc21` shows Microsomal intrinsic clearance of no less than 9 µL/min?
### Response TRUE

### Prompt Could you verify whether the entry `CS(=O)(=O)CCCn1c(CN2C(=O)C3(CC3)c3ccc(F)cc32)nc2cc(CN)ccc21` shows Microsomal intrinsic clearance of no less than 9 µL/min?
### Response FALSE
